Origin of values: ChEMBL document CHEMBL4680103

assay: Selectivity index, ratio of IC50 for cytotoxicity in African green monkey Vero cells to IC50 for antitrypanosomal activity against Trypanosoma cruzi […] amastigote forms; type: toxicity, cell-based; settings: read-out: Ratio IC50
PROPERTY LABEL: selectivity ratio
Form field (numeric): enter value without unit.

What value of selectivity ratio has been reported for the following compound? O=C(CCN1CCN(c2cccc(C(F)(F)F)c2)CC1)c1ccsc1
1

====

assay: Inhibition of Trypanosoma cruzi Arequipa Fe-SOD by NBT dye based spectrophotometry
PROPERTY LABEL: pIC50
The meaning of pIC50 here: minus log10 of the concentration in molar units.

Would you please look over these solved cases?
O=C(CCN1CCN(c2ccc([N+](=O)[O-])cc2)CC1)c1csc2ccccc12 = 5.11
O=C(CCN1CCN(c2ccc(C(F)(F)F)cc2)CC1)c1csc2ccc(F)cc12 = 3.99
O=C(CCN1CCN(c2ccc([N+](=O)[O-])cc2C(F)(F)F)CC1)c1csc2ccccc12 = 4.15

Read the next record carefully.
For O=C(CCN1CCN(c2ccc(F)cc2)CC1)c1csc2ccc(F)cc12 , what is its reported pIC50?
4.77

====

assay: Selectivity index, ratio of IC50 for cytotoxicity in African green monkey Vero cells to IC50 for antitrypanosomal activity against Trypanosoma cruzi […] epimastigote forms
PROPERTY LABEL: selectivity ratio
Reply briefly: the number, and no unit.

Would you mind telling me what selectivity ratio value was observed for O=C(CCN1CCN(c2cccc(C(F)(F)F)c2)CC1)c1ccsc1 ?
1

====

tested on: Trypanosoma cruzi; experiment: Antitrypanosomal activity against Trypanosoma cruzi Arequipa trypomastigote froms infected in mouse blood incubated for 24 hrs by Neubauer chamber based assay; assay type: functional, organism-based
IC50 values by entry
Note: unit µM is implicit; provide only the numeric part.

Solved cases (3 shown):
O=C(CCN1CCN(Cc2cccc(F)c2)CC1)c1csc2ccccc12 = 39.5
O=C(CCN1CCN(c2ccc(Cl)cc2)CC1)c1csc2ccccc12 = 31.4
O=C(CCN1CCN(c2ccc(F)cc2)CC1)c1csc2ccc(F)cc12 = 0.3

Next compound, IC50 to be filled in.
Using the record for O=C(CCN1CCN(c2ccc(C(F)(F)F)cc2)CC1)c1ccc2ccccc2c1 , report its IC50.
8.3

====

test system: Trypanosoma cruzi; experiment: Antitrypanosomal activity against Trypanosoma cruzi Arequipa trypomastigote froms infected in mouse blood incubated for 24 hrs by Neubauer chamber based assay; type: functional, organism-based
pIC50: −log10 of the molar value.
Assign true (1) whenever pIC50 does not fall below 5; assign false (0) whenever it does.

Solved cases below.
O=C(CCN1CCN(c2ccc(C(F)(F)F)cc2)CC1)c1ccc2c(c1)OCO2 = false (0)
O=C(CCN1CCN(c2ccc([N+](=O)[O-])cc2)CC1)c1ccc2c(c1)OCO2 = true (1)
COc1cc(Cl)ccc1N1CCN(CCC(=O)c2cc(C)sc2C)CC1 = true (1)
O=C(CCN1CCN(c2ccc(F)cc2)CC1)c1ccc2c(c1)OCO2 = false (0)
O=C(CCN1CCN(c2ccc(C(F)(F)F)cc2)CC1)c1csc2ccccc12 = false (0)

Turning now to a further record.
Could you tell me if the measured pIC50 of O=C(CCN1CCN(c2ccc([N+](=O)[O-])cc2)CC1)c1csc2ccc(F)cc12 reaches 5 or more?
false (0)
